- target-of-assay: Fab of trastuzumab (human)
- protocol-notes: SPR; Fab of trastuzumab amine-coupled to a CM5 chip (1,000 RU), VHH as analyte in a 1/2 dilution series; Biacore X100, HBS-EP (10 mM HEPES pH 7.4, 150 mM NaCl, 3 mM EDTA, 0.005% P20), 20°C, 10 µL/min, association 360 s, dissociation 800 s; 1:1 binding model
In this section, each of the binders is paired with its reported koff.
# value in s⁻¹; strip the unit string

binder: VHH clone Ig-S6584 (cluster Ig-7) (VHH) VHH: QVQLVESGGGLVQAGGSLRLSCAASGFTFDDYIVGWFRQAPGKEREGVSCIRSSDGSTNYADSVKGRFTVSSDNAKNTVYLQMNSLKPEDTAVYYCAEGPTVLDGCIYDSESYYFSWGQGTQVTVSS
koff (s⁻¹): 0.000221

binder: VHH clone Ig-S8492 (cluster Ig-7) (VHH) VHH: QVQLVESGGGLVQAGGSLRLSCAASGFTFDDYVIGWFRQAPGKEREGVSCISSSDGRTDYADSVKGRFTISSDNAKNTVYLQMNSLKPEDTAVYYCAAGPTVLDGCIYYSGSYYFSWGQGTQVTVSS
koff (s⁻¹): 0.000245

binder: VHH clone Ig-S675 (cluster Ig-7) (VHH) VHH: QVQLVESGGGLVQAGGSLRLSCAATGFTFDDYVIGWFRQASGKEREGVSCIRSSDGDTYYADSVKGRFTVSSDNAKNTVYLQMNSLKPEDTAVYYCAEGPTVLDGCIVDSESYYFSWGQGTQVTVSS
koff (s⁻¹): 4.71e-05

Task: Give koff for the following binder: VHH clone Ig-S1139 (cluster Ig-7) (VHH) VHH: QVQLVESGGGLVQAGGSLRLSCAASGFTFDDYVIGWFRQAPGKEREGVSCISSSDGSTYYADSVKGRFTISSDNAKNTVYLQMNSLKPEDTAVYYCAEGPTVLDGCIVDSGSYYFSWGQGTQVTVSS
Result: 0.00554

Task: Consider the binder VHH clone Ig-S506 (cluster Ig-7) (VHH) VHH: QVQLVESGGGLVQAGGSLRLSCAASGFTFDDYVIGWFRQAPGKEREGVSCISSSDGSTNYADSVKGRFTISSDNAKNTVYLQMNSLKPEDTAVYYCAEGPTVLDGCIYDSGSYYFSWGQGTQVTVSS and give its recorded koff.
Result: 0.0073
